Test system: HEK293T cells
Assay: Localization of nuclear transport signal-double GFP reporter in HEK293T cells
Format: cell-based
Set-up: key: +++ for strong; ++ for moderate; + for weak; − for no localization
Conditions: double GFP cargo, 24 h post transfection, fluorescence quantified with ImageJ (S6, S7 Figures); NES/SEN on SV40 NLS double GFP

monomer-sequence: VTRRRRPPPRQIKIWFQNRRMKWKK [NS5A SLN]
tested-system: HEK293T cells
Localization Nuclear: −
--
monomer-sequence: TIFYQLWWILRALFLKYHPSLTLLILRQIKIWFQNRRMKWKK [NS2 SEN]
tested-system: HEK293T cells
Localization Nuclear: +++
--
monomer-sequence: PKTKRKVRQIKIWFQNRRMKWKK [SV40 mut NLS, reference compound]
tested-system: HEK293T cells
Localization Nuclear: −
--
monomer-sequence: GWVIVKKEMPSFIIPRQIKIWFQNRRMKWKK [NS2 SLN]
tested-system: HEK293T cells
Localization Nuclear: −
